test-details: Artificial human sebum-water partition coefficient, log K of the compound
Format: physicochemical
Entries annotated with measured log K
metric: log K

[[record]]
input_smiles = "CC1(C)CN(Cc2ccccc2F)C(=O)[C@@H]1Oc1ccc(C#N)c(C(F)(F)F)c1"
metric = "log K"
reported = 3.95

[[record]]
input_smiles = "C[C@H](O)CC[C@H](C)Oc1ccc(C#N)c(C(F)(F)F)c1"
metric = "log K"
reported = 2.06

[[record]]
input_smiles = "CCCN1CC(C)(C)[C@@H](Oc2ccc(C#N)c(C(F)(F)F)c2)C1=O"
metric = "log K"
reported = 2.74

[[record]]
input_smiles = "CSc1ccc(CN2CC(C)(C)[C@@H](Oc3ccc(C#N)c(C(F)(F)F)c3)C2=O)cc1"
metric = "log K"
reported = 4.6

[[record]]
input_smiles = "N#Cc1ccc(O[C@@H]2CCCC[C@H]2C#N)cc1C(F)(F)F"
metric = "log K"
reported = 3.03

[[record]]
input_smiles = "CC1(C)CN(Cc2ccccc2)C(=O)[C@@H]1Oc1ccc(C#N)c(C(F)(F)F)c1"
metric = "log K"
reported = 3.92

[[record]]
input_smiles = "N#Cc1ccc(Sc2ccccc2F)cc1C(F)(F)F"
metric = "log K"
reported = 4.48

[[record]]
input_smiles = "N#Cc1ccc(Oc2ccc(F)cc2F)cc1C(F)(F)F"
metric = "log K"
reported = 4.06


----------
test-details: Drug level in Syrian golden hamster sebaceous gland at 0.2% administered topically after 8 hrs
Format: ADME, tissue-based, Mesocricetus auratus
assay-context: topical or ocular, read-out: Drug uptake
metric: concentration at 8 h

[[record]]
input_smiles = "CC1(C)CN(Cc2ccccc2)C(=O)[C@@H]1Oc1ccc(C#N)c(C(F)(F)F)c1"
reported = "156 µM"


----------
Entries annotated with measured pIC50
measurement-target: Progesterone receptor (Homo sapiens, UniProt P06401)
Sequence (P06401 whole entry): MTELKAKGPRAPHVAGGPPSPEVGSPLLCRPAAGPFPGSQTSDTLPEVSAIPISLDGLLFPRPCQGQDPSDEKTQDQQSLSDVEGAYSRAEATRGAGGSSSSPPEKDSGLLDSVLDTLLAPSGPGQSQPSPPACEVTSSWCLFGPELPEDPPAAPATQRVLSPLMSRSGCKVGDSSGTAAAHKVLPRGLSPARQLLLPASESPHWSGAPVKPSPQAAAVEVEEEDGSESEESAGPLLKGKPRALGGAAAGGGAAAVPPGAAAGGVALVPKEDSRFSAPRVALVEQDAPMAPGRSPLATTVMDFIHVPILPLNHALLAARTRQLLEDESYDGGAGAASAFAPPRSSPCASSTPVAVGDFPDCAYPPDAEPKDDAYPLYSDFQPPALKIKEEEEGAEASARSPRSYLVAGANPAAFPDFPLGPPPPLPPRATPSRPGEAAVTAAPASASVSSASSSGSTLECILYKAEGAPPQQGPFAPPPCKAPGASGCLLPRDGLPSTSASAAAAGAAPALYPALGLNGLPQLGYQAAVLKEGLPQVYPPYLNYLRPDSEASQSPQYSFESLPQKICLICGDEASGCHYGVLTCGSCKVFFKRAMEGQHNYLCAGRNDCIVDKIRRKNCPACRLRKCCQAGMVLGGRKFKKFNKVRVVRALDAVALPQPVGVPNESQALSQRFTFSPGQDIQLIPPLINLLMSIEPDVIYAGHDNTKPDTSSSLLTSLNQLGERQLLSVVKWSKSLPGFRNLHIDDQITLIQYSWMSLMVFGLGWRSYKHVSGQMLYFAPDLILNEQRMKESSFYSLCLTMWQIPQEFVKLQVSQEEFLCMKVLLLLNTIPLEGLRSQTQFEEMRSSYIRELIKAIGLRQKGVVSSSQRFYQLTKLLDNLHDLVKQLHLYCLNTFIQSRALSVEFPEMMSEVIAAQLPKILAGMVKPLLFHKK
pIC50: −log10 of the molar value.
metric: pIC50

[[record]]
input_smiles = "N#Cc1ccc(Oc2ccc(F)cc2F)cc1C(F)(F)F"
operator = "<"
reported = 5.00

[[record]]
input_smiles = "CSc1ccc(CN2CC(C)(C)[C@@H](Oc3ccc(C#N)c(C(F)(F)F)c3)C2=O)cc1"
operator = "<"
reported = 5.00

[[record]]
input_smiles = "CC1(C)CN(Cc2ccccc2)C(=O)[C@@H]1Oc1ccc(C#N)c(C(F)(F)F)c1"
operator = "="
reported = 5.36

[[record]]
input_smiles = "CC1(C)CN(Cc2ccccc2F)C(=O)[C@@H]1Oc1ccc(C#N)c(C(F)(F)F)c1"
operator = "="
reported = 5.32

[[record]]
input_smiles = "N#Cc1ccc(Sc2ccccc2F)cc1C(F)(F)F"
operator = "="
reported = 5.16

